Examples of compounds with documented Capping rate follow.
molecular target: T7 RNA polymerase (Escherichia phage T7); experiment: Capping rate of in vitro transcribed mRNA by LC-MS; type: biochemical; conditions: mRNA transcribed with the cap analog, LC-MS
Sequence (P00573 whole entry): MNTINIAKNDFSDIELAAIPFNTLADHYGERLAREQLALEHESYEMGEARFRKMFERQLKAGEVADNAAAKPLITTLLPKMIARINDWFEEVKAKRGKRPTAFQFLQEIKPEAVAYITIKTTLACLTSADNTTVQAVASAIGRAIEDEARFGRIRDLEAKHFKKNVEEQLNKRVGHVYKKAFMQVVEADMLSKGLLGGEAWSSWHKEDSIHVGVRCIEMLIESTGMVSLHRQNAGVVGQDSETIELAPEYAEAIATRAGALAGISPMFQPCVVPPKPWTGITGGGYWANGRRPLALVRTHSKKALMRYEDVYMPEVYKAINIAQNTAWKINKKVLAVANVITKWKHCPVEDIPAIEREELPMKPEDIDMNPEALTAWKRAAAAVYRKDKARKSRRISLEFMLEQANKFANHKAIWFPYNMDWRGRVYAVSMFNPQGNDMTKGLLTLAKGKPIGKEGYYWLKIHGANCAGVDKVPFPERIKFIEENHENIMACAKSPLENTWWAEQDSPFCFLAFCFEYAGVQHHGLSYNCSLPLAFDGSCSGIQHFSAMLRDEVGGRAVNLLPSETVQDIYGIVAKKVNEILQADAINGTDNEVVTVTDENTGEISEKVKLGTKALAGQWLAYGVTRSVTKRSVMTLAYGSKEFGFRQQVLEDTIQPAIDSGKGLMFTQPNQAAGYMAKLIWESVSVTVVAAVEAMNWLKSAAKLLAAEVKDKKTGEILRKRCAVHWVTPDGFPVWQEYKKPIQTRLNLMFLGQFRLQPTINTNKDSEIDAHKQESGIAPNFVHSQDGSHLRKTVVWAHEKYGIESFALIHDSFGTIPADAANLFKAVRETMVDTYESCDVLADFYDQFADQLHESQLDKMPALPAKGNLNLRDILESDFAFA
METRIC: Capping rate (%)

COMPOUND | METRIC | REPORTED MEASUREMENT
COC1C(OP(=O)([O-])OC[C@H]2O[C@@H](n3cnc4c(=O)[nH]c(N)nc43)C(O)C2O)[C@@H](COP(=O)(O)OP(=O)(O)OP(=O)(O)OC[C@]23COC(C2O)[C@H]([n+]2cn(C)c4c(=O)[nH]c(N)nc42)O3)O[C@H]1n1cnc2c(N)ncnc21 (stereo partly shown) [Compound 14, reference compound] | Capping rate | 77.5
COC1C(OP(=O)([O-])OC[C@H]2O[C@@H](n3cnc4c(=O)[nH]c(N)nc43)C(O)C2O)[C@@H](COP(=O)(O)OP(=O)(O)OP(=O)(O)OC[C@]23O[C@@H]([n+]4cn(C)c5c(=O)[nH]c(N)nc54)C(O[C@H]2CC(F)F)C3O)O[C@H]1n1cnc2c(N)ncnc21 (stereo partly shown) [YK-CAP-004] | Capping rate | 96.3
COC1C(OP(=O)([O-])OC[C@H]2O[C@@H](n3cnc4c(=O)[nH]c(N)nc43)C(O)C2O)[C@@H](COP(=O)(O)OP(=O)(O)OP(=O)(O)OC[C@]23O[C@@H]([n+]4cn(C)c5c(=O)[nH]c(N)nc54)C(O[C@H]2CCN(C)C)C3O)O[C@H]1n1cnc2c(N)ncnc21 (stereo partly shown) [YK-CAP-001] | Capping rate | 73.1
COC1C(OP(=O)([O-])OC[C@H]2O[C@@H](n3cnc4c(=O)[nH]c(N)nc43)C(O)C2O)[C@@H](COP(=O)(O)OP(=O)(O)OP(=O)(O)OC[C@]23O[C@@H]([n+]4cn(C)c5c(=O)[nH]c(N)nc54)C(O[C@H]2CC#N)C3O)O[C@H]1n1cnc2c(N)ncnc21 (stereo partly shown) [YK-CAP-002] | Capping rate | 70.2

====

experiment: Characterization of lipid nanoparticles encapsulating Fluc-mRNA; type: physicochemical; conditions: LNP (YK-009/DSPC/cholesterol/DMG-PEG2000) encapsulating Fluc-mRNA transcribed using the cap analog

COMPOUND | Particle size
COC1C(OP(=O)([O-])OC[C@H]2O[C@@H](n3cnc4c(=O)[nH]c(N)nc43)C(O)C2O)[C@@H](COP(=O)(O)OP(=O)(O)OP(=O)(O)OC[C@]23COC(C2O)[C@H]([n+]2cn(C)c4c(=O)[nH]c(N)nc42)O3)O[C@H]1n1cnc2c(N)ncnc21 (stereo partly shown) [Compound 14, reference compound] | 102.2 nm
COC1C(OP(=O)([O-])OC[C@H]2O[C@@H](n3cnc4c(=O)[nH]c(N)nc43)C(O)C2O)[C@@H](COP(=O)(O)OP(=O)(O)OP(=O)(O)OC[C@]23O[C@@H]([n+]4cn(C)c5c(=O)[nH]c(N)nc54)C(O[C@H]2CC#N)C3O)O[C@H]1n1cnc2c(N)ncnc21 (stereo partly shown) | 86.31 nm
COC1C(OP(=O)([O-])OC[C@H]2O[C@@H](n3cnc4c(=O)[nH]c(N)nc43)C(O)C2O)[C@@H](COP(=O)(O)OP(=O)(O)OP(=O)(O)OC[C@]23O[C@@H]([n+]4cn(C)c5c(=O)[nH]c(N)nc54)C(O[C@H]2CC(F)F)C3O)O[C@H]1n1cnc2c(N)ncnc21 (stereo partly shown) | 89.39 nm
COC1C(OP(=O)([O-])OC[C@H]2O[C@@H](n3cnc4c(=O)[nH]c(N)nc43)C(O)C2O)[C@@H](COP(=O)(O)OP(=O)(O)OP(=O)(O)OC[C@]23O[C@@H]([n+]4cn(C)c5c(=O)[nH]c(N)nc54)C(O[C@H]2CCS(=O)(=O)N(C)C)C3O)O[C@H]1n1cnc2c(N)ncnc21 (stereo partly shown) | 96.64 nm
